Here, molecules appear alongside IC50 reported for Serine/threonine-protein kinase mTOR (Homo sapiens, UniProt P42345) in the literature.
quantity kind: IC50 (nM)

CCNc1cc(-c2ccc3ncc4c(c3c2)n(-c2c(C)noc2C)c(=O)n4C)cnc1Cl: 665
Cc1nn(C)cc1-n1c(=O)n(C)c2cnc3ccc(-c4cnc5ccccc5c4)cc3c21: 6
CCn1nccc1-n1c(=O)n(C)c2cnc3ccc(-c4ccc(OC)nc4)cc3c21: 162
CC(C)n1nc(-c2cc3cccc(O)c3[nH]2)c2c(N)ncnc21: 0.7
COCCOc1ccc(-c2ccc3ncc4c(c3c2)n(-c2cn(C)nc2C)c(=O)n4C)cn1: 123
COc1ncc(-c2ccc3nccc(-c4ccc(Cn5cncn5)cc4)c3c2)cc1NS(=O)(=O)c1ccc(F)cc1F: 1.1

* * *

pIC50: −log10 of the molar value.
Here, compounds appear alongside pIC50 reported for Serine/threonine-protein kinase mTOR (Homo sapiens) in the literature.
quantity kind: pIC50

Cc1ccc(-c2ccc3c(N4CCOCC4)nc(-c4ccc(NC(=O)Nc5ccc(C(=O)N(C)C)cc5)cc4)nc3c2)s1: 5.00 to 6.70
Cc1nn(C)cc1-n1c(=O)n(C)c2cnc3ccc(-c4ccc(N5CC[C@@H](O)C5)nc4)cc3c21: 7.14
C[C@@H]1CN(c2nc3c(-c4ccc(-c5ccccc5)nc4)cnn3c3c2C(=O)CCN3)C[C@H](C)O1: 7.00 to 8.00
CC(=O)Nc1cncc(-c2ccc3c(N4CCOCC4)nc(-c4ccc(NC(=O)Nc5ccc(C(=O)N(C)C)cc5)cc4)nc3c2)c1: > 7.30

* * *

pIC50: −log10 of the molar value.
Here, compounds appear alongside pIC50 reported for Serine/threonine-protein kinase mTOR (Homo sapiens, UniProt P42345) in the literature.
quantity kind: pIC50

COCCO[C@]1(C(=O)O)CC[C@@H](c2nc3c(-c4cnn(-c5ccccc5)c4)cnn3c3c2C(=O)CCN3)CC1: > 8.00
Nc1c2c(nc3c(-c4ccc(-c5ccccc5)nc4)cnn13)CS(=O)(=O)C2: 7.00 to 8.00
CCNc1ccc(Cn2cnc3c(-c4cccc(O)c4)nc(N4CCOCC4)nc32)cc1: 5.30 to 6.00
CC(=O)N1CCC(n2nc(-c3cc4cc(O)ccc4[nH]3)c3c(N)ncnc32)CC1: 7.85
CC1c2c(nc(-c3ccc(NC(=O)NC4CC4)cc3)nc2N2CCOC[C@@H]2C)CS1(=O)=O (mixture of isomers): > 7.00
C=CC(=O)N1CCc2ccc(-n3c(=O)ccc4cnc5ccc(-c6cnc7ccccc7c6)cc5c43)cc21: 7.23
CN(C)C(=O)c1ccc(NC(=O)Nc2ccc(-c3nc(N4CCOCC4)c4ccc(C(C)(C)O)cc4n3)cc2)cc1: > 7.30
O=c1[nH]c2ncc(-c3ccc(O)cc3)nc2n1CC1CCCOC1 (stereo not drawn): 5.30 to 7.00
C[C@@H]1CN(c2nc3c(N4CCOCC4)nc(-c4cnc(N)nc4)nc3n2CC(F)(F)F)CCN1C(=O)CO: > 8.00
CC(=O)N1CCN(c2nc3c(N4CCOC[C@@H]4C)nc(-c4cnc(N)nc4C)nc3n2CC2CC2)CC1: 6.30 to 7.00
COc1ccc2c(N3CCOCC3)nc(-c3ccc(NC(=O)Nc4ccc(C(=O)N(C)C)cc4)c(F)c3)nc2c1: > 7.30
NC(=O)c1nc(-c2cccc(O)c2)nc2c1[nH]c(=O)n2C1CCCCC1: 5.30 to 7.00
Cc1nn(CC(=O)N(C)C)c(C)c1-n1c(=O)n(C)c2cnc3ccc(-c4cnc(N)c(C(F)(F)F)c4)cc3c21: 6.82
Nc1ncc(-c2nc(N3CCOCC3)c3ncc(-c4cccc(NC(=O)C5CCC(O)CC5)c4)cc3n2)cn1 (stereo not drawn): > 7.30
Cc1nn(CCO)cc1-n1c(=O)n(C)c2cnc3ccc(-c4cncc(N5CCOCC5)c4)cc3c21: 7.72
CN(C)C(=O)c1ccc(NC(=O)Nc2ccc(-c3nc(N4CCOCC4)c4ccc(-c5ccco5)cc4n3)cc2)cc1: > 7.30
CN(C)C(=O)c1ccc(NC(=O)Nc2ccc(-c3nc(N4CCOCC4)c4cc(F)c(-c5cccc(S(C)(=O)=O)c5)cc4n3)cc2)cc1: > 7.30
CC(O)c1ccc(-c2cnc3c(N4CCOCC4)nc(-c4ccc(NC(=O)Nc5ccc(C(=O)N(C)C)cc5)c(F)c4)nc3c2)o1 (stereo not drawn): > 7.30
CN(C)C(=O)c1ccc(NC(=O)Nc2ccc(-c3nc(N4CCOCC4)c4ccc(-c5ccc(N)nc5)cc4n3)cc2)c(F)c1: > 7.30
Cc1c(-c2ccc3[nH]ccc3c2)cnc2[nH]c(=O)n(CC3CCOCC3)c12: 5.30 to 7.00
CC(C)Cn1c(N2CCN(C(=O)C[C@H](C)O)[C@H](C)C2)nc2c(N3CCOCC3)nc(-c3cnc(N)nc3)nc21: 7.52 to 8.00
Cc1nc2cnc3ccc(-c4cnc(N)c(C(F)(F)F)c4)nc3c2n1C1CCN(CC(=O)N(C)C)CC1: > 7.00
Nc1ncc(-c2ccc3ncc4ncn(C5CCOCC5)c4c3n2)cc1C(F)(F)F: > 7.00
CC(C)n1c(=O)n(C)c2nnc3cc(F)c(-c4ccc(N5CCC(N(C)C)CC5)nc4)cc3c21: < 5.00
COCCOc1cc(-c2ccc3ncc4c(c3c2)n(-c2cn(C)nc2C)c(=O)n4C)cnc1C: 7.51
Cc1ccncc1-c1ccc2c(N3CCOCC3)nc(-c3ccc(NC(=O)Nc4ccc(C(=O)N(C)C)cc4)c(F)c3)nc2c1: > 7.30
CC(NC1CCOCC1)c1nc2c(-c3cnc4ccc(F)cc4c3)cnn2c2c1C(=O)CCN2 (stereo not drawn): < 7.00
CNc1ccc(-c2ccc3ncc4c(c3c2)n(-c2cn(C(C)C)nc2C)c(=O)n4C)cn1: 8.30
COc1ccccc1-n1c(=O)[nH]c2c(C(N)=O)nc(-c3ccc4cc[nH]c4c3)nc21: 4.70 to 5.00
Nc1ncc(-c2nc(N3CCOCC3)c3ncc(-c4cccc(C(=O)N5CCN(CCO)CC5)c4)cc3n2)cn1: 5.00 to 6.70

* * *

pIC50: −log10 of the molar value.
Here, compounds appear alongside pIC50 reported for Serine/threonine-protein kinase mTOR (Homo sapiens, UniProt P42345) in the literature.
quantity kind: pIC50

CCn1cc(-c2cc(-c3cnc4[nH]ccc4c3)ccn2)n(-c2ccc(C(C)(C)C#N)cc2)c1=O: 7.00 to 10.00
O=S1(=O)CCC(c2nc3c(-c4cnc5ccc(F)cc5c4)cnn3c3[nH]ncc23)CC1: 7.00 to 8.00
Cc1nn(C)cc1-n1c(=O)n(C)c2cnc3ccc(-c4cccc(OC(C)C)c4)cc3c21: 7.57
Cc1ncc(-c2ccc3ncc4c(c3c2)n(-c2cn(C)nc2C)c(=O)n4C)cc1OC(CF)CF: 7.77
O=S1(=O)CCC(c2nc3c(-c4ccc(-c5ccccc5)nc4)cnn3c3[nH]ncc23)CC1: 8.00 to 9.00
COCCOc1ccc(-c2ccc3ncc4c(c3c2)n(-c2cn(C)nc2C)c(=O)n4C)cc1OC: 7.28
O=C(Nc1ccc(C(=O)N2CCC(O)C2)cc1)Nc1ccc(-c2nc(N3CCOCC3)c3ccc(-c4ccco4)cc3n2)cc1 (stereo not drawn): > 7.30
Cc1nn(C)c(C)c1-n1c(=O)n(C)c2cnc3ccc(-c4ccc(N(C)C)nc4)cc3c21: 6.27
COc1ncc(-c2ccc3c(N4CCOCC4)nc(-c4ccc(NC(=O)Nc5ccc(C(=O)N(C)C)cc5)cc4)nc3c2)cn1: > 7.30
CNC(=O)Nc1ccc(-c2nc(N3CCOC[C@@H]3C)c3c(n2)C(C)(C)S(=O)(=O)C3C)cc1 (stereo partly drawn): > 7.00
C[C@@H]1COCCN1c1nc(-c2cnc(N)nc2)nc2c(N3CCOCC3)cc(-c3cccc(NS(=O)(=O)CCCF)c3F)cc12: 7.00 to 9.00
CO[C@@H]1CC[C@H](Cn2c(=O)[nH]c3ncc(-c4cnc5[nH]ccc5c4)cc32)OC1: > 7.30
COc1ncc(-c2ccc3ncc4nn(C)c(=O)n4c3c2)cc1NS(=O)(=O)c1ccc(F)cc1F: > 7.00
Nc1ncc(-c2nc(N3CCOCC3)c3ncc(-c4ccc(C(=O)Nc5ccncc5)cc4)cc3n2)cn1: 6.70 to 7.30
CC1c2c(nc(-c3ccc(NC(=O)NC4CC4)cc3)nc2N2CCOC[C@H]2C)CS1(=O)=O (stereo partly drawn): > 7.00
CCn1cc(-n2c(=O)n(C)c3cnc4ccc(-c5cnc(OC)nc5)cc4c32)c(C)n1: 7.23
COc1ccc(-c2ccc3ncc4c(c3n2)n(-c2cc(C)nn2C)c(=O)n4C)cc1OC: 8.52
Nc1cc(Cl)c(-c2cc(N3CCOCC3)cc(S(=O)(=O)[C@@H]3CCOC3)c2)cn1: 5.36
C[C@@H]1COCCN1c1nc(-c2ccc(N)nc2)nc2c(N3CCCC3)cc(-c3cccc(NS(=O)(=O)CCCF)c3F)cc12: 6.00 to 7.00
Cc1cc(-n2c(=O)n(C)c3cnc4ccc(-c5cnc(F)c(N)c5)cc4c32)n(C)n1: 6.68
N#Cc1c[nH]c2ncc(-c3cnc4[nH]c(=O)n(CC5CCOCC5)c4c3)cc12: > 7.30
CN(C)c1c(-c2cnc3[nH]c(=O)n(C[C@H]4COCCO4)c3c2)cnc2[nH]ccc12: 5.30 to 7.00
CC1CN(c2nc(-c3ccc(NC(=O)Nc4ccc(C(=O)N(C)C)cc4)c(F)c3)nc3cc(-c4cncnc4)ccc23)CC(C)O1 (stereo not drawn): 6.70 to 7.30
Cc1nn(CC(=O)N2CCCC2)cc1-n1c(=O)n(C)c2cnc3ccc(-c4cnc(N5CCCC5)nc4)cc3c21: 7.47
CS(=O)(=O)N1CCN(c2nc3c(N4CCOCC4)nc(-c4cnc(N)nc4)nc3n2CC(F)(F)F)CC1: > 8.00
CC(C)(Cc1ccccc1Br)Nc1nc(N2CCOCC2)nc(-n2c(C(F)F)nc3ccccc32)n1: < 6.30
C[C@H](c1ccccc1)n1c(=O)[nH]c2ncc(-c3cccc4ncccc34)nc21: 4.70 to 5.00
O=c1ccc2cnc3ccc(-c4c[nH]c5ncccc45)nc3c2n1-c1cccc(C(F)(F)F)c1: 8.28
CN(C)C(=O)c1ccc(NC(=O)Nc2ccc(-c3nc(N4CCOCC4)c4ncc(-c5cnn(C)c5)cc4n3)cc2F)cc1: > 7.30
CNC(=O)c1ccc(NC(=O)Nc2ccc(-c3nc(N4CCOCC4)c4ncc(-c5cnn(C)c5)cc4n3)cc2)cc1: > 7.30
